target: T1, human NPR1 extracellular domain expressed with a C-terminal myc-myc-hexahistidine (hNPR1-MMH) (human, UniProt P16066 33-473); test: SPR, mAb captured, 37 C
T1 construct: also called hNPR.mmh; monomeric human NPR1
T1 sequence (P16066 other isoform, or with tags, fused parts or gaps): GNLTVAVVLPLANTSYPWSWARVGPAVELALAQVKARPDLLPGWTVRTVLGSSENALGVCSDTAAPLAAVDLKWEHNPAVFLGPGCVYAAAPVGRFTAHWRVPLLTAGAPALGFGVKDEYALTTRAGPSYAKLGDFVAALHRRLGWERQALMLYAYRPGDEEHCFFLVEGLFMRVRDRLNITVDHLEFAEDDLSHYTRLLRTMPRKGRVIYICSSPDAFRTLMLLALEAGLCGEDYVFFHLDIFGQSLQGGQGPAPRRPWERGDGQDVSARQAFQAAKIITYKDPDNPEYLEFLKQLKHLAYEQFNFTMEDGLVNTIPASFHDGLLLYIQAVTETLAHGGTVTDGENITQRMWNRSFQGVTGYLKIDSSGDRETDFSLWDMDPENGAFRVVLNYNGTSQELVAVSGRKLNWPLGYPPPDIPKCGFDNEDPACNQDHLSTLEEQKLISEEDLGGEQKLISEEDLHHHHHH
Here the recorded t½ is given for each entry.
# value in min; strip the unit string

- mAb25497 (antibody, V domains shown) VH: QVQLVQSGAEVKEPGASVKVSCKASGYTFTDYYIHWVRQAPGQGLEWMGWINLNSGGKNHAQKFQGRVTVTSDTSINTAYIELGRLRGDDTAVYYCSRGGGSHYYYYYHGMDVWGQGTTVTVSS VL: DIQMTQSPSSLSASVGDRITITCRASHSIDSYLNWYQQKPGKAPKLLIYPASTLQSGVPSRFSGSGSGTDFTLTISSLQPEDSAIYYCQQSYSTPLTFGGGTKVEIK: 4.5
- mAb25508 (antibody, V domains shown) VH: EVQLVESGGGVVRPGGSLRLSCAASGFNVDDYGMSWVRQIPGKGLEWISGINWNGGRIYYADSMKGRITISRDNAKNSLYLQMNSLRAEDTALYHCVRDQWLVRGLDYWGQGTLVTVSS VL: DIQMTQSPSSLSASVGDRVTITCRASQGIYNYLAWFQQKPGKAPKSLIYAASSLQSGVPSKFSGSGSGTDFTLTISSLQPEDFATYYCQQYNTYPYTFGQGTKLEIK: 52.1
- mAb22035 (antibody, V domains shown) VH: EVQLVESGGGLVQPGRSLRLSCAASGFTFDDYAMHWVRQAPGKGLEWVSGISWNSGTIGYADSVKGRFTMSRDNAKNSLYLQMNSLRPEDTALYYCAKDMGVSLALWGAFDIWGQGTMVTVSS VL: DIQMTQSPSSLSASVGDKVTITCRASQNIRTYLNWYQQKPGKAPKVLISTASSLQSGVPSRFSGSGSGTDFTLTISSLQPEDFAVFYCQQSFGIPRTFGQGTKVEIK: 37.1

// sample mAb25491 (antibody, V domains shown) VH: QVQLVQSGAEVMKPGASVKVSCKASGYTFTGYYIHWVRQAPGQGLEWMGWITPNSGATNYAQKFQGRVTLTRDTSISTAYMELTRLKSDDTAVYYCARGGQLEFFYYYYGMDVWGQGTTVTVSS VL: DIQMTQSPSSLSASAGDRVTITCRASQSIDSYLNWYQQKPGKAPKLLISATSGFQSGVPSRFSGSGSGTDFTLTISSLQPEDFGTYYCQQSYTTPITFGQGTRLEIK , its t½ was 2.5
